test: Toxicity in ip dosed ICR mouse assessed as morbidity and lethality after 14 days; format: organism-based; conditions: in vivo
Kindly state LD50 at 336 h for each of the entries shown.
One number for each entry, in mg/kg.

C[C@@H]1CC[C@@]2(OC1)O[C@H]1C[C@H]3[C@@H]4CC=C5C[C@@H](O[C@@H]6O[C@H](CO)[C@@H](O[C@@H]7O[C@@H](C)[C@H](O)[C@@H](O)[C@H]7O)[C@H](O)[C@H]6O[C@@H]6O[C@@H](C)[C@H](O)[C@@H](O)[C@H]6O)CC[C@]5(C)[C@H]4CC[C@]3(C)[C@H]1[C@@H]2C = 38

--- query ---
Hello, please tell me recorded LD50 at 336 h for this one: C[C@@H]1CC[C@@]2(OC1)O[C@H]1C[C@H]3[C@@H]4CC=C5C[C@@H](O[C@@H]6O[C@H](CO)[C@@H](O[C@@H]7O[C@@H](C)[C@H](O[C@@H]8O[C@@H](C)[C@H](O)[C@@H](O)[C@H]8O)[C@@H](O)[C@H]7O)[C@H](O)[C@H]6O[C@@H]6O[C@@H](C)[C@H](O)[C@@H](O)[C@H]6O)CC[C@]5(C)[C@H]4CC[C@]3(C)[C@H]1[C@@H]2C [PENNOGENIN RAHAMNOSYL CHACOTRIOSIDE]
28
